Test system: MS2 coat protein
Experiment: apparent KD of MS2 coat protein; designed switch direction (-1 OFF switch, 1 ON switch): 1; higher = weaker reporter binding
Settings: input ligand: FMN 200 uM
Binary call on apparent KD of MS2 coat protein: 1.0 from 30 nM upward, 0.0 beneath that.

Ask: Assess whether reported apparent KD of MS2 coat protein for UUUCGAUAGAUAGGAUAUCACUUUACAUGAGGAUCACCCAUGUUGGCUGUGCUGAUUAUUAAAACUGAGAAGGAUCUUGAUGAC [JR_SSNG2_Sub003] (Eterna round: R96, puzzle: Same State NG 2) sits at 30 nM or higher.
Result: 0.0

Ask: Assess whether reported apparent KD of MS2 coat protein for GCUAGAAUUAACGCCUACAUGAGGAUCACCCAUGUAUGUAGGCAGGAUAUCGUUUGCUUUGCAAACGAGAAGGGCCUUACUAGC [JL SSNG3 1.11] (Eterna round: R96, puzzle: Same State NG 3) sits at 30 nM or higher.
Result: 0.0

Ask: Assess whether reported apparent KD of MS2 coat protein for GGAGCCAAGGCAGGAUAUUCAUUAUAAAUUACAUGAGGAUCACCCAUGUUGGCCAGAAGGCCAUGGGAGAAGGGCCAUGGCUCG [Xeonanis - 13 mod25] (Eterna round: R96, puzzle: Same State NG 2) sits at 30 nM or higher.
Result: 1.0

Ask: Assess whether reported apparent KD of MS2 coat protein for UGUUGUUAAUUAGGAUAUGGGCACAUGAGGAUCACCCAUGUAUUGUCGAUGCUAUGUGGACACGUUUAGAAGGAAUGGCUAACA [SameState NG2 #91] (Eterna round: R96, puzzle: Same State NG 2) sits at 30 nM or higher.
Result: 1.0
